Molecular target: Aurora kinase B (Homo sapiens)
Assay: Inhibition of Aurora B at 10 uM
Below is a list of entries, each paired with its recorded inhibition value.

Look over these answered cases.
FC(F)(F)Oc1cccc(-n2cc(-c3ccccc3NCc3ccncc3)nn2)c1 : < 30%
CC(C)c1cccc(-n2cc(-c3ccccc3NCc3ccncc3)nn2)c1 : < 30%
Clc1cccc(-n2cc(-c3ccccc3NCc3ccncc3)nn2)c1 : < 30%

The reported inhibition of the compound `FC(F)(F)c1ccc(-n2cc(-c3ccccc3NCc3ccncc3)nn2)cc1` was < 30%

====

Below is a list of entries, each paired with its recorded inhibition value.
Assay: Inhibition of Bcr-Abl T315 mutant at 10 uM

Look over these answered cases.
FC(F)(F)c1cccc(-n2cc(-c3ccccc3NCc3ccc4c(c3)OCO4)nn2)c1 : < 30%
FC(F)(F)c1cccc(-n2cc(-c3ccccc3NCc3ccccn3)nn2)c1 : < 30%
Clc1cccc(-n2cc(-c3ccccc3NCc3cccnc3)nn2)c1 : < 30%
c1ccc(-c2cn(-c3ccc4ccccc4n3)nn2)c(NCc2ccncc2)c1 : < 30%
CC(C)(C)c1cccc(-n2cc(-c3ccccc3NCc3ccncc3)nn2)c1 : < 30%

Field: next compound
The reported inhibition of the compound `Clc1ccc(-n2cc(-c3ccccc3NCc3ccncc3)nn2)cc1` was < 30%

====

pIC50: −log10 of the molar value.
# pIC50 measurements, system: Vascular endothelial growth factor receptor 1 (Homo sapiens)
# Sequence (P17948 whole entry): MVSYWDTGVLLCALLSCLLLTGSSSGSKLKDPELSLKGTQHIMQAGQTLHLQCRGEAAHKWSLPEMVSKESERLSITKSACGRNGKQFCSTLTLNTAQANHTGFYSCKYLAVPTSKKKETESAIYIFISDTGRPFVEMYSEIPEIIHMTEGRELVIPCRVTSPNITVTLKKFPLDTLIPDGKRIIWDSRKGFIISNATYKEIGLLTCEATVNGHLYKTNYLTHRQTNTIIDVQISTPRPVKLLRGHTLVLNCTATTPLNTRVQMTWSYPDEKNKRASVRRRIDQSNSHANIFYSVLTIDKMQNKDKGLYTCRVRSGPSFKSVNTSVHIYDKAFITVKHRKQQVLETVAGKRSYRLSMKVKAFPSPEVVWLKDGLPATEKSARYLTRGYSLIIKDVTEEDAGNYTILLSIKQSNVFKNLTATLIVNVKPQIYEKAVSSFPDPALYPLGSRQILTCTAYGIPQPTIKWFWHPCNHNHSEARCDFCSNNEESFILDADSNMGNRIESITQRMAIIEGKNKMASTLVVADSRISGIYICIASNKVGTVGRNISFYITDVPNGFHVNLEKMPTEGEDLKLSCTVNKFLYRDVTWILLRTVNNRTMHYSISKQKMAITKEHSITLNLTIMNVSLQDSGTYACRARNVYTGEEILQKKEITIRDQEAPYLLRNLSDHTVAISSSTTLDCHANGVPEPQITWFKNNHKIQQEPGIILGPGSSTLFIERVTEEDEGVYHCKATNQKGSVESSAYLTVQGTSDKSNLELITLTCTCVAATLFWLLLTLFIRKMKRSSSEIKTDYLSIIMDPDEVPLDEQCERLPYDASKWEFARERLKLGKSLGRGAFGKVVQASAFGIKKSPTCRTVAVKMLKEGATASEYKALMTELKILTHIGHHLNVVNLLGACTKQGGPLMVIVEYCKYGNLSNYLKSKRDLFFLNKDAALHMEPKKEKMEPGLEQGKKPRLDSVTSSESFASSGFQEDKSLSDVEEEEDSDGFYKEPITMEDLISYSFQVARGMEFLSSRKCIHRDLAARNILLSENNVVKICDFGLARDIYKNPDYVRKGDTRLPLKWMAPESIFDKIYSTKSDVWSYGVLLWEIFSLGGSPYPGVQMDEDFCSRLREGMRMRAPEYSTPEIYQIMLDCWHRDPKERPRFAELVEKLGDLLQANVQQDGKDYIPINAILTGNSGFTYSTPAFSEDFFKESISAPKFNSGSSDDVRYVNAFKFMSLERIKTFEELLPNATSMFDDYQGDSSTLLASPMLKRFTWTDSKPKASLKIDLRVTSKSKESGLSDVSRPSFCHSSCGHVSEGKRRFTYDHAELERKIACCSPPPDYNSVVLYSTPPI
reported_metric: pIC50

Look over these answered cases.
Clc1cccc(-n2cc(-c3ccccc3NCc3ccnc4ccccc34)nn2)c1 : 6.77
FC(F)(F)c1cccc(-n2cc(-c3ccccc3NCc3ccncc3)nn2)c1 : 7.18
CC(C)(C)c1cccc(-n2cc(-c3ccccc3NCc3ccncc3)nn2)c1 : 6.60

(P) FC(F)(F)c1ccc(-n2cc(-c3ccccc3NCc3ccncc3)nn2)cc1
(Q) FC(F)(F)c1ccc(-n2cc(-c3ccccc3NCc3ccncc3)nn2)cc1Cl
[in] Param metric = pIC50; output whichever of P , Q has the minimum value. Use the label to indicate which entry you chose.
[out] Q

(1) Cc1cc(-n2cc(-c3ccccc3NCc3ccncc3)nn2)ccc1C(F)(F)F
(2) CC(C)c1cccc(-n2cc(-c3ccccc3NCc3ccncc3)nn2)c1
[in] Hi, I'm comparing 1 with 2 and wondering which one has the bigger number for pIC50. Any idea? Use the label to indicate which entry you chose.
[out] 2

====

Molecular target: Cyclin-dependent kinase 1 (Homo sapiens) (UniProt P06493)
Sequence (P06493 whole entry, looked up): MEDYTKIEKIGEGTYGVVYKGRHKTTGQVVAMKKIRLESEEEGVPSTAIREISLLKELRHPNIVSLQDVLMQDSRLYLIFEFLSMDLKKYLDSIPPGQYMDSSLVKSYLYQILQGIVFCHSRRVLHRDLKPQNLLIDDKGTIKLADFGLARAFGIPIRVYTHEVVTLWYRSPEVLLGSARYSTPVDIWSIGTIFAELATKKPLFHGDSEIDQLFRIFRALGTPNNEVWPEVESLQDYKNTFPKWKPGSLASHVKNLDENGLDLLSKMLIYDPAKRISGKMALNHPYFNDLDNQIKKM
Experiment: Inhibition of Cdk1 at 10 uM
Below is a list of entries, each paired with its recorded inhibition value.

Look over these answered cases.
Cc1cc(-n2cc(-c3ccccc3NCc3ccncc3)nn2)ccc1C(F)(F)F : < 30%
Cc1ccc(-n2cc(-c3ccccc3NCc3ccncc3)nn2)cc1C(F)(F)F : < 30%
c1ccc(-c2cn(-c3ccc4[nH]ncc4c3)nn2)c(NCc2ccncc2)c1 : < 30%
Fc1ccc(CNc2ccccc2-c2cn(-c3cccc(Cl)c3)nn2)cc1F : < 30%
Clc1cccc(-n2cc(-c3ccccc3NCc3ccccn3)nn2)c1 : < 30%

The reported inhibition of the molecule `FC(F)(F)c1ccc(-n2cc(-c3ccccc3NCc3ccncc3)nn2)cc1Cl` was < 30%

The reported inhibition of the molecule `Clc1cccc(-n2cc(-c3ccccc3NCc3ccc4c(c3)OCO4)nn2)c1` was < 30%

The reported inhibition of the molecule `Clc1cccc(-n2cc(-c3ccccc3NCc3ccncc3)nn2)c1` was < 30%

The reported inhibition of the molecule `FC(F)(F)c1cccc(-n2cc(-c3ccccc3NCc3ccc4c(c3)OCO4)nn2)c1` was < 30%

The reported inhibition of the molecule `Clc1cccc(-n2cc(-c3ccccc3NCc3c[nH]cn3)nn2)c1` was < 30%

The reported inhibition of the molecule `CC(C)(C)c1cccc(-n2cc(-c3ccccc3NCc3ccncc3)nn2)c1` was < 30%
